Where do these numbers come from? They come from patent US20020128231A1.

Molecular target: UniProtKB P08183
Sequence (P08183 whole entry): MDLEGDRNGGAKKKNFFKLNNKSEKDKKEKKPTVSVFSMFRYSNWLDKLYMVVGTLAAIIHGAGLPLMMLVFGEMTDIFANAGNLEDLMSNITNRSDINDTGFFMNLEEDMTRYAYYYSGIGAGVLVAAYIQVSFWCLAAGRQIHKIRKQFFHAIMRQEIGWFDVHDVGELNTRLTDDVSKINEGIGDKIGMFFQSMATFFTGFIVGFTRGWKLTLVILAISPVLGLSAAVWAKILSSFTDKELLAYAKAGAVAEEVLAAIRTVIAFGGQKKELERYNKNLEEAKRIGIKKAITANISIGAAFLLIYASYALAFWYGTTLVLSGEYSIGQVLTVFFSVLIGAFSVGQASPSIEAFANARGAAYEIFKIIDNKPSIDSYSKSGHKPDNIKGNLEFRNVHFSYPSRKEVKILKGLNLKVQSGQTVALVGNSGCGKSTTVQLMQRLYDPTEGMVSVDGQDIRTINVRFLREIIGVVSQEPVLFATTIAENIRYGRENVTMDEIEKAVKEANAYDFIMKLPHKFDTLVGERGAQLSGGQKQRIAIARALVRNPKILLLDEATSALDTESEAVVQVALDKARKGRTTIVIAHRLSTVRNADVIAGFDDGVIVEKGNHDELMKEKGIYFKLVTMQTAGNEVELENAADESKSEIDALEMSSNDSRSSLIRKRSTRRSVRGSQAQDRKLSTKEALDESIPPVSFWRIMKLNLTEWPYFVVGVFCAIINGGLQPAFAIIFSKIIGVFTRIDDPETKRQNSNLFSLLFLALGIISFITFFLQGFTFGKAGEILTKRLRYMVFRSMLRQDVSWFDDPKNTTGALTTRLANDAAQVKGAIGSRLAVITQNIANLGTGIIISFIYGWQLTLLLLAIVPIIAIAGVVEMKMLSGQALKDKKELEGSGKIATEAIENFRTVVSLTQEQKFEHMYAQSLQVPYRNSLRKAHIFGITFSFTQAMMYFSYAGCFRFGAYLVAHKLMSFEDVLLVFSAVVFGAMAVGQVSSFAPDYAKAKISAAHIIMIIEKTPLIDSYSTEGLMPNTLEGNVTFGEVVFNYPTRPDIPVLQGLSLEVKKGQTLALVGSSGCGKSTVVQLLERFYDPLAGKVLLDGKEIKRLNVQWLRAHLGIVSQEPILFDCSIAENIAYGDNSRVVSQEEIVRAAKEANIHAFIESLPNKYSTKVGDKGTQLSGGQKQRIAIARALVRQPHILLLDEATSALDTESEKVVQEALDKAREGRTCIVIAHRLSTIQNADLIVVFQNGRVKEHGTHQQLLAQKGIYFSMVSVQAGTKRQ
Test: Rhodamine 123 transport assay across HCT-8 cell monolayers
Conditions: compound 10 μM; Rh123 15 μM; HCT-8 cells
Quantity Measured: % Inhibition of R123 Transport (%)

molecule="COc1ccc(C2c3cc(OC)c(OC)cc3C(CCNC(=O)c3ccc(C(C)(C)C)cc3)C2CNC(=O)c2ccc(C(C)(C)C)cc2)cc1OC (stereo not drawn)" target_under_test="UniProtKB P08183" result=84.87
molecule="COc1cc(C2c3cc(O)c(OC)cc3C(CC(=O)N3CCC(Cc4ccccc4)CC3)C2C(=O)N2CCC(Cc3ccccc3)CC2)ccc1O (single isomer, unassigned) [AV-251-2]" target_under_test="UniProtKB P08183" result=75.44
molecule="COc1ccc(C2c3cc(OC)c(OC)cc3C(CCNS(=O)(=O)c3ccccc3)C2CNS(=O)(=O)c2ccccc2)cc1OC (stereo not drawn)" target_under_test="UniProtKB P08183" result=74.50
molecule="COc1ccc(C2c3cc(OC)c(OC)cc3C(CCNC(=O)c3ccccc3OC)C2CNC(=O)c2ccccc2OC)cc1OC (stereo not drawn)" target_under_test="UniProtKB P08183" result=93.0
molecule="CCCOc1ccc(C2c3cc(OCCC)c(OC)cc3C(CC(=O)N3CCN(c4ccccc4OCC)CC3)C2C(=O)N2CCN(c3ccccc3OCC)CC2)cc1OC (single isomer, unassigned) [AV-239-2]" target_under_test="UniProtKB P08183" result=91.38

[P] CCOc1ccccc1N1CCN(C(=O)CC2c3cc(OC)c(OC)cc3C(c3ccc(OC)c(OC)c3)C2C(=O)N2CCN(c3ccccc3OCC)CC2)CC1 (stereo not drawn)
[Q] CCCOc1ccc(C2c3cc(OCCC)c(OCCC)cc3C(CC(=O)N3CCN(c4ccccc4OCC)CC3)C2C(=O)N2CCN(c3ccccc3OCC)CC2)cc1OCCC (stereo not drawn)
Problem: Look at P and Q . Which one has the lower recorded % Inhibition of R123 Transport number? Could you answer with the label of the item you picked?
Result: Q
